Where do the numbers come from? From paper PMC8537386.

Target: HCA2/GPR109A (Homo sapiens, UniProt Q8TDS4)
Construct: expressed in transfected cells; host or cells: Flp-In-293
Sequence (Q8TDS4 whole entry): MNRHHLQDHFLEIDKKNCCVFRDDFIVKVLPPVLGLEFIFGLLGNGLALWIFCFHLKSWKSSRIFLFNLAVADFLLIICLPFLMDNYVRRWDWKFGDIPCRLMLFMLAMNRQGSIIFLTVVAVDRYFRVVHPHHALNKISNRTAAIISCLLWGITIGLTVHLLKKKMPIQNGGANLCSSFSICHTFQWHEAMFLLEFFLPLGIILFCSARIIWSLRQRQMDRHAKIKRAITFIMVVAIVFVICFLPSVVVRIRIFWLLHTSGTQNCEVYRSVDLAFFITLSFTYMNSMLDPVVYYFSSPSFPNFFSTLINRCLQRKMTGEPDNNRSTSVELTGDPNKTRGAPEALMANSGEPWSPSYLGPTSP
Test: forskolin-stimulated cAMP accumulation assay, Flp-In-293 cells stably expressing HCA2/GPR109A;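 further: percent inhibition relative to forskolin-stimulated cAMP level as control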
Assay type: cell-based
Conditions: HCA2; 50 µM compound; NA = not active up to 50 µM
Classification field: Met = inhibition at 50 µM at or over 50%; Not met = inhibition at 50 µM under 50%.

Examples from the recorded data:
CC(=O)OCCN1C2=C(C(=O)CC(C)(C)C2)C(c2ccccc2)C2=C1CC(C)(C)CC2=O; Not met
CC(Sc1nc(=O)c2c(CCCCCl)cc(=O)oc2[nH]1)C(=O)c1ccc(OCc2ccccc2)cc1 (stereo not drawn); Not met
CCCNCC1=C(C(=O)OCC)C(c2ccc(-c3ccccc3)cc2)C2=C(CC(C)(C)CC2=O)N1 (stereo not drawn); Met

Query: # check: inhibition at 50 µM of CCN1CC2=C(C1=O)C(c1ccc(-c3ccccc3)cc1)C1=C(CC(C)(C)CC1=O)N2 (stereo not drawn) is greater than or equal to 50%
Response: Not met

Query: Quick check, inhibition at 50 µM >= 50%? CCOC(=O)C(OC(=O)C1=C(C)NC2=C(C(=O)CCC2)C1c1cccs1)c1ccccc1 (stereo not drawn)
Response: Met

Query: Has `O=C(CSc1nc(=O)c2c(CCCCCl)cc(=O)oc2[nH]1)Nc1ccccc1C(=O)O` a recorded inhibition at 50 µM greater than or equal to 50%?
Response: Not met
